Cited source for all entries: patent US20250270315A1

# target_or_system: T1, human SIRPα v2 ECD recombinant protein (tag not given) (human)
# T1 construct: extracellular domain; also called ELISA microplate coated human SIRPα v2 ECD
# assay_comment: competitive ELISA, mFc-CD47 ECD on coated SIRPα v2 ECD
measurement_name: IC50 (nM)
Write the value in nM as a bare number.

Below, 5 binders whose answers are already recorded.
071c (antibody, V domains shown, also called chimeric antibody 071c) VH: QIQLVQSGPELKKPGETVKISCKASGYTFTTYGMSWVKQAPGKGLKWMVWINTYSGVPTYADDFQGRFAFSLETSASTSYLQINNLRNEDTATYFCARDPHYYGTSPAWFAYWGQGTLVTVSA VL: DIVMTQSQKFMSTTIGDRVIITCKASQIVGIAVAWYQQKPGQSPKLLIYSASNRFTGVPDRFTGSGSGTDFTLTISNMQSEDLADYFCQQYSTYPFTFGSGTKLEIK
5.1
042c (antibody, V domains shown, also called chimeric antibody 042c) VH: QIQLVQSGPELKKPGETVKISCRASGYTFTTYGMSWVKQAPGKGLRWMGWINTYSGVSTCADDFKGRFAFSLETSATTAYLQIHNLTNEDTATYFCARDPHSYGNSPAWFPYWGQGTLVTVSA VL: DIVMTQSQKFMSTTIRDRVSITCKASQNVGISVAWYQQKSGQSPKLLIYSASNRYTGVPDRFTGSGSGTDFTLTISNMQSEDLADYFCQQYSSYPLTFGSGTKLAIK
4.49
025c (antibody, V domains shown, also called chimeric antibody 025c; parental antibody of 025c) VH: EVQLQQSGAELVKPGASVKLSCTASGFNIKDYYMHWVKQRTEQGLEWIGRIDPEDGETKYAPKFQGKATITADTSSNTAYLQLSSLTSEDTAVYYCDRGLAYWGQGTLVTVSA VL: QIVLTQSPAIMSASPGEKVTLTCSASSSVSSSYLYWYQQKPGSSPKLWIYSTSNLASGVPARFSGSGSGTSYSLTISSMEAEDAASYFCHQWSSYPYTFGGGTKLEIK
2.21
hu1H9G4 (antibody, V domains shown) VH: QVQLVQSGAEVKKPGASVKVSCKASGYTFTSYWITWVKQAPGQGLEWIGDIYPGSGSTNHIEKFKSKATLTVDTSISTAYMELSRLRSDDTAVYYCATGYGSSYGYFDYWGQGTLVTVSS VL: DIQMTQSPSSLSASVGDRVTITCRASENIYSYLAWYQQKPGKAPKLLIYTAKTLAEGVPSRFSGSGSGTDFTLTISSLQPEDFATYYCQHQYGPPFTFGQGTKLELK
5.74
015c (antibody, V domains shown, also called chimeric antibody 015c) VH: EVQLQQSGVEVVQPGASVKLSCTASGFNIEAYYMHWVKQRTEQGLEWIGRIDPEDGESKYAPKFQGKATMTADTSSSTAYLQLSSLTSDDTAVYYCVRGSYEYWGQGTTLTVSS VL: QIVLTQSPAIMSASPGEKVTLTCSASSSVSSSYLYWYQQKPGSSPKLWIYSTSNLASGVPPRFSGSGSGTSYSLTISSMQAEDAASYFCYQWSSYPYTFGGGTKLEIK
2.45

Input: Recorded IC50 of 059c (antibody, V domains shown, also called chimeric antibody 059c) VH: QVQLQQSGPELVKPGASVKMSCKASGYTFSEYVLSWVKQRTGQGLEWIGEIYPGTITTYYNEKFKGKATLTADKSSNTAYIQLTSLTSEDSAVYFCGRFYDYDGGWFAYWGQGTLLTVSA VL: ENVLTQSPEKMAVSLGQKVTMTCSASSSVSSSDLHWYQQKSGASPKPLIHGTSNLASGVPARFSGSGSGTSYSLTISSVEAEDAATYYCQQWSGYPWTFGGGTNLEIK , please.
Output: 54.1

Input: Recorded IC50 of 073c (antibody, V domains shown, also called chimeric antibody 073c) VH: QIQLVQSGPELKKPGETVKISCKASGYTFTTYGMSWVKQAPGKGLKWMVWINTYSGVPTYADDFKGRFAFSLETSASTSYLQINNLKNEDTATYFCARDPHYYGSSPAWFVYWGQGTLVTVSA VL: DIVMTQSQKFMSTTIGDRVSITCEASQIVGIAVAWYQQKPGQSPKLLIYSASNRYTGVPDRFTGSGSGTDFTLTISNMQSEDLANYFCQQYSAYPFTFGSGTKLEVK , please.
Output: 4.92
